B1: ZNF511 (parent)
chain: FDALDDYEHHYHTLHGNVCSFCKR

Variants of: B1
assayText: protein stability index of a GFP-peptide fusion (GPS, HEK-293T) (PSI 1-6); higher = more stable;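 further: lentivirally expressed fusions sorted by FACS into six bins by GFP to DsRed ratio, PSI derived from sequencing read proportions per bin multiplied by bin number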
particulars: c terminus: a fixed tail appended
If the reported protein stability index equals or exceeds 3, assign T. If not, assign F.

variantSpec: L4K
label: T

variantSpec: R24S
label: T

variantSpec: A3Y
label: T

variantSpec: H9N
label: F

variantSpec: K23Y
label: F

Consider now this further variant.
Task item: Determine whether this variant has protein stability index no lower than 3: "G16E"
Reply: T
